# ASSAY METHOD TEXT: Kinetic solubility determination (high throughput)
# Format: physicochemical
# CONDITION SUMMARY: kinetic from dmso stock, sterile water, 5% DMSO, room temperature
# Protocol: Test compounds (10 μL; 20 mM DMSO solution) were added to sterile water (190 μL) in triplicate and shaken at 300 rpm at room temperature. After 90 min. the test compounds were filtered by centrifuge (5 min. at 3000 rpm) to obtain the aqueous filtrate. […] The diluted filtrate (80 μL) was then added to acetonitrile (20 μL) and the plate analysed. as previously.
Kindly return y if reported solubility kinetic at 90 min is no lower than 100 µg/mL; return n if it is lower.

Given N#CC1(NC(=O)c2cc(NC(=O)Cc3cc(O)c(C4(C(F)(F)F)CC4)cc3F)ccn2)CC1 [Example 9] , state whether its solubility kinetic at 90 min is at least 100 µg/mL. n

hey, is solubility kinetic at 90 min for this one >= 100 µg/mL? CC(C)(CO)c1cc(Cl)c(CC(=O)Nc2ccnc(C(=O)NC3(C(F)(F)F)CC3)c2)cc1O [Example 14] n

Answer whether solubility kinetic at 90 min of CC(C#N)NC(=O)c1cc(NC(=O)Cc2cc(O)c(C(C)(C)C)cc2F)ccn1 (stereo not drawn) [Example 1.3] is greater than or equal to 100 µg/mL. n

Can CC(C)(C#N)NC(=O)c1cc(NC(=O)Cc2cc(O)c(C(C)(C)CN3CCOCC3)cc2F)ccn1 [Example 2.5] be said to have solubility kinetic at 90 min at or above 100 µg/mL? y

// inclusive: solubility kinetic at 90 min at least 100 µg/mL? input: CC(C)(C#N)c1cc(F)c(CC(=O)Nc2ccnc(C(=O)NC3(C(F)(F)F)CC3)c2)cc1O [Example 2.3] n

Is solubility kinetic at 90 min for CC(C)(C)c1cc(Cl)c(CC(=O)Nc2ccnc(C(=O)NC3(C(F)(F)F)CC3)c2)cc1O [Example 10.1] at or above 100 µg/mL? y

Evaluate CC(C)(CO)c1cc(Cl)c(CC(=O)Nc2ccnc(C(=O)NC3(C(F)F)CC3)c2)cc1O [Example 15.3] : solubility kinetic at 90 min at minimum 100 µg/mL? y

Confirm if solubility kinetic at 90 min reported for the molecule CC(C)(CO)c1cc(F)c(CC(=O)Nc2ccnc(C(=O)NC3(C(F)(F)F)CC3)c2)cc1O [Example 2.6] is 100 µg/mL or above. y

Check the entry CC(C)(C#N)NC(=O)c1cc(NC(=O)Cc2cc(O)c(C3(C)CCC3)cc2F)ccn1 [Example 5] : does solubility kinetic at 90 min equal or exceed 100 µg/mL? n

Tell me whether solubility kinetic at 90 min is at least 100 µg/mL here: CCC(C)(O)c1cc(F)c(CC(=O)Nc2ccnc(C(=O)NC3(C(F)(F)F)CC3)c2)cc1O (stereo not drawn) [Example 2.11] y

Does the reported solubility kinetic at 90 min for CC(C)(C)NC(=O)c1cc(NC(=O)Cc2cc(O)c(C(C)(C)C)cc2F)ccn1 [91 of PCT/GB2019/050209, reference compound] fall at or above the 100 µg/mL mark? n

hey, is solubility kinetic at 90 min for this one >= 100 µg/mL? CC(C)(CCO)c1cc(F)c(CC(=O)Nc2ccnc(C(=O)NC3(C(F)(F)F)CC3)c2)cc1O [Example 11] y

Check if solubility kinetic at 90 min >= 100 µg/mL (inclusive). Item: O=C(Cc1cc(O)c(C(CO)C(F)(F)F)cc1F)Nc1ccnc(C(=O)NC2(C(F)(F)F)CC2)c1 (stereo not drawn) [Example 17] y

Check if solubility kinetic at 90 min >= 100 µg/mL (inclusive). Item: Cc1cc(C(C)(C)CO)c(O)cc1CC(=O)Nc1ccnc(C(=O)NC2(C(F)(F)F)CC2)c1 [Example 14.1] y
